Test system: phospho-akt (Thr308)
ASSAY_NAME: phospho-akt (Thr308) MSD ELISA in PC-3 cells
Format: cell-based
CONDITION_INFO: Homo sapiens, PC-3, 2 h, PC-3 cells, 2 hours, no serum; read-out: Inhibition of P308 Akt in cells using MSD EC50
MEASUREMENT_KIND: EC50

Reference set (3 entries):
CHEMICAL_SMILES	EC50
NC[C@@H](NC(=O)c1cccn(Cc2ccc(F)c(F)c2)c1=O)c1nnc(-c2c[nH]c3ncccc23)o1	1000 to 5000 nM
O=C(NCc1ccc(-c2ccc3cn[nH]c3c2)s1)c1cccn(Cc2ccc(F)c(F)c2)c1=O	1000 to 5000 nM
O=C(NCc1cccc(-c2n[nH]c3ncccc23)c1)c1cccn(Cc2ccc(F)c(F)c2)c1=O	1000 to 5000 nM

With those in mind, consider the next molecule.
Fill blank: measured EC50 of the molecule "CCNC(=O)c1cnc2[nH]cc(-c3cccc(CNC(=O)c4cccn(Cc5ccc(F)c(F)c5)c4=O)c3)c2c1" is ____.
< 1000 nM

###

System: phospho-akt (Thr308)
ASSAY_NAME: phospho-akt (Thr308) MSD ELISA in PC-3 cells
Type: cell-based
CONDITION_INFO: Homo sapiens, PC-3, 2 h, PC-3 cells, 2 hours, no serum; read-out: Inhibition of P308 Akt in cells using MSD EC50
pEC50: −log10 of the molar value.
MEASUREMENT_KIND: pEC50

Reference set (3 entries):
COMPOUND	TARGET_OR_TEST_SYSTEM	pEC50
CC1(C)C(=O)Nc2cc(/C=C/CNC(=O)c3cccn(Cc4cc(F)c(F)c(F)c4)c3=O)ccc21	phospho-akt (Thr308)	5.30 to 6.00
O=C(NCc1cccc(-c2c[nH]c3ncccc23)n1)c1cccn(Cc2ccc(F)c(F)c2)c1=O	phospho-akt (Thr308)	5.30 to 6.00
O=C(c1cccn(Cc2ccc(F)c(F)c2)c1=O)N1CCc2ccc(-c3c[nH]c4ncccc34)cc2C1	phospho-akt (Thr308)	< 5.30

Form field - read-out: pEC50; system: phospho-akt (Thr308); submitted item: "O=C1Nc2cc(/C=C/CNC(=O)c3cccn(Cc4cc(F)c(F)c(F)c4)c3=O)ccc2/C1=C/c1nccs1"
5.30 to 6.00

Form field - read-out: pEC50; system: phospho-akt (Thr308); submitted item: "CC(C)(C)OC(=O)C[C@@H](NC(=O)c1cccn(Cc2ccc(F)c(F)c2)c1=O)c1nnc(-c2c[nH]c3ncccc23)o1"
> 6.00

Form field - read-out: pEC50; system: phospho-akt (Thr308); submitted item: "O=C(NCc1ccc(-c2c[nH]c3ncc(F)cc23)s1)c1cccn(Cc2ccc(F)c(F)c2)c1=O"
> 6.00

Form field - read-out: pEC50; system: phospho-akt (Thr308); submitted item: "CNC(=O)c1cc(-c2c[nH]c3ncccc23)cc(CNC(=O)c2cccn(Cc3ccc(F)c(F)c3)c2=O)n1"
> 6.00

Form field - read-out: pEC50; system: phospho-akt (Thr308); submitted item: "COC(=O)[C@H](COc1ccc2[nH]c(=O)[nH]c2c1)NC(=O)c1cccn(Cc2ccc(F)c(F)c2)c1=O"
5.30 to 6.00

Form field - read-out: pEC50; system: phospho-akt (Thr308); submitted item: "CC(C)(C)OC(=O)NC[C@@H](NC(=O)c1cccn(Cc2ccc(F)c(F)c2)c1=O)c1nc(-c2c[nH]c3ncccc23)cs1"
5.30 to 6.00

Form field - read-out: pEC50; system: phospho-akt (Thr308); submitted item: "Cc1ccc(Cn2cccc(C(=O)NCc3noc(-c4c[nH]c5ncccc45)n3)c2=O)cc1Cl"
< 5.30

Form field - read-out: pEC50; system: phospho-akt (Thr308); submitted item: O=C(NC(COc1ccc2[nH]c(=O)[nH]c2c1)c1ccc(O)cc1)c1cccn(Cc2cc(F)c(F)c(F)c2)c1=O (stereo not drawn)
5.30 to 6.00

All figures here come from patent US9873693B2.
